# Target: Aldo-keto reductase family 1 member C3 (Homo sapiens) (UniProt P42330)
# Sequence (P42330 whole entry): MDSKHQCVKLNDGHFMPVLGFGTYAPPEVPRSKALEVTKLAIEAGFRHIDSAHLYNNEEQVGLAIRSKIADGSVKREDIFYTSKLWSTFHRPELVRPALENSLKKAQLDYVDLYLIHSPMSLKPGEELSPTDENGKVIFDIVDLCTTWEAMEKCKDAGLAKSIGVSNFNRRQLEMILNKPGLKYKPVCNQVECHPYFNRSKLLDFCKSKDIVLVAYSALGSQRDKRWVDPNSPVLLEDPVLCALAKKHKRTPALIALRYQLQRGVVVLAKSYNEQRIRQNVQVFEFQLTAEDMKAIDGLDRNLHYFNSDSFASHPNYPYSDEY
# Experiment Notes: Inhibition of recombinant AKR1C3 using 1-acenaphthenol as substrate at 10 uM by spectrophotometry
Everything with inhibition lower than 50% is Criterion not met; everything else, including exactly 50%, is Criterion met.

Solved entries (count: 3):
smiles_structure=O=C(Nc1ccc([N+](=O)[O-])cc1C(=O)O)c1cccc(O)c1 assigned_label="Criterion met"
smiles_structure=COc1cc(NC(=O)c2cccc(N)c2)c(C(=O)O)cc1OC assigned_label="Criterion not met"
smiles_structure=COc1cc(NC(=O)c2cccc(O)c2)c(C(=O)O)cc1OC assigned_label="Criterion met"

Problem: Evaluate CCCCOc1cc(C(=O)Nc2ccccc2C(=O)O)ccc1[N+](=O)[O-] : inhibition at minimum 50%?
Solution: Criterion not met

Problem: Evaluate CCCCOc1cccc(C(=O)Nc2ccc(Br)cc2C(=O)O)c1 : inhibition at minimum 50%?
Solution: Criterion not met

---

# Target: UniProtKB P42330
# Experiment Notes: Inhibition of recombinant AKR1C3 using 1-acenaphthenol as substrate by spectrophotometry
Friendly reminder: IC50 below 5 µM is rule met, at or above is rule not met.

Solved entries (count: 2):
smiles_structure=O=C(Nc1ccc(Br)cc1C(=O)O)c1cccc(O)c1 assigned_label="rule met"
smiles_structure=O=C(Nc1ccccc1C(=O)O)c1cccc(O)c1 assigned_label="rule not met"

Problem: Input COc1cc(NC(=O)c2cccc(O)c2)c(C(=O)O)cc1OC ; condition: IC50 strictly below 5 µM. Does it hold?
Solution: rule not met

---

# Target: Aldo-keto reductase family 1 member C3 (Homo sapiens, UniProt P42330)
# Experiment Notes: Inhibition of recombinant AKR1C3 using S-tetralol as substrate by fluorimetry
pIC50: −log10 of the molar value.
Everything with pIC50 lower than 6 is false (0); everything else, including exactly 6, is true (1).

smiles_structure=O=C(Nc1ccccc1C(=O)O)c1cccc(O)c1 assigned_label="false (0)"
smiles_structure=O=C(Nc1ccc(Br)cc1C(=O)O)c1cccc(O)c1 assigned_label="true (1)"
smiles_structure=COc1cc(NC(=O)c2cccc(O)c2)c(C(=O)O)cc1OC assigned_label="false (0)"

Problem: Evaluate O=C(Nc1ccc(Cl)cc1C(=O)O)c1cccc(O)c1 : pIC50 at minimum 6?
Solution: true (1)

---

# Target: Aldo-keto reductase family 1 member C2 (Homo sapiens)
# Sequence (P52895 whole entry): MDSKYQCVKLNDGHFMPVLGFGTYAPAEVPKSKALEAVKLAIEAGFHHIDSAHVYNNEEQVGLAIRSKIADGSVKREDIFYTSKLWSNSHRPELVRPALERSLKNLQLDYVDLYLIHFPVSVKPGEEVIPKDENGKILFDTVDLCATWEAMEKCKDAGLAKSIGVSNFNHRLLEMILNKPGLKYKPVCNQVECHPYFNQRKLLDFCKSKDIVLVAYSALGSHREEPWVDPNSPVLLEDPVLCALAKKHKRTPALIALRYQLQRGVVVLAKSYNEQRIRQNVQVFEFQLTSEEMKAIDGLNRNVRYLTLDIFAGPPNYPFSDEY
# Experiment Notes: Inhibition of recombinant AKR1C2 using S-tetralol as substrate by fluorimetry
Friendly reminder: IC50 below 50 µM is 1, at or above is -1.

Solved entries (count: 3):
smiles_structure=O=C(Nc1ccc(Br)cc1C(=O)O)c1cccc(O)c1 assigned_label=-1
smiles_structure=COc1cc(NC(=O)c2cccc(O)c2)c(C(=O)O)cc1OC assigned_label=1
smiles_structure=O=C(Nc1ccccc1C(=O)O)c1cccc(O)c1 assigned_label=1

Problem: Input O=C(Nc1ccc([N+](=O)[O-])cc1C(=O)O)c1cccc(O)c1 ; condition: IC50 strictly below 50 µM. Does it hold?
Solution: 1

---

IC50: recorded values
# Target: Aldo-keto reductase family 1 member C1 (Homo sapiens, UniProt Q04828)
# Sequence (Q04828 whole entry): as the sequence (P52895 whole entry) above, with V38T, H47R, V54L, S87C, M151V, H170R, L172Q counted along it
# Experiment Notes: Inhibition of recombinant AKR1C1 using S-tetralol as substrate by fluorimetry
I only need the number, in µM, no unit after it.

Worked cases, IC50 given:
smiles_structure=O=C(Nc1ccc(Br)cc1C(=O)O)c1cccc(O)c1 reported_property=IC50 assay_value=100
smiles_structure=O=C(Nc1ccc(Cl)cc1C(=O)O)c1cccc(O)c1 reported_property=IC50 assay_value=50.8
smiles_structure=COc1cc(NC(=O)c2cccc(O)c2)c(C(=O)O)cc1OC reported_property=IC50 assay_value=86.3

Consider the record given below.
Problem: For the compound O=C(Nc1ccc([N+](=O)[O-])cc1C(=O)O)c1cccc(O)c1 , what IC50 is on record?
Solution: 35.2

Reference source: ChEMBL document CHEMBL2069201
